# assay comment: protein stability index of a GFP-peptide fusion (GPS, HEK-293T) (PSI 1-6); higher = more stable;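 further: 24-mer peptide tiles fused after GFP, lentivirally expressed, FACS-sorted into six equal bins by GFP/DsRed ratio, decoded by Illumina sequencing, PSI is the read-weighted mean bin number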
# assay context: treatment: MLN4924 1 uM, 8 h; c terminus: a fixed tail appended
assay metric: protein stability index

sequence record	assay metric	observed measurement
PDHFDTAILFTRQDLCGVSTCDTL [ADAMTS4]	protein stability index	2.94
KQIAVAITEALRPAGVGVVVEATH [GCH1]	protein stability index	2.42
FHEDGPQGPGGDEDDDEEDTDKLL [PSD2]	protein stability index	5.59
HGAVTVGGTSVGSLGVPGSVGGVP [ZBTB22]	protein stability index	4.06
NAREESLVEELSPASEKKPVPPSE [BCL2L13]	protein stability index	5.47
LTGTESPFDLEQQWQDLMSIMEMQ [NFE2L1]	protein stability index	3.88
PSALVPSVTEYRLDGHTISDLSRS [MYBL2]	protein stability index	4.25
YSYASTHRLMTDARRRVCHTEDFQ [CPXM2]	protein stability index	3.44

* * *

# assay comment: protein stability index of a GFP-peptide fusion (GPS, HEK-293T) (PSI 1-6); higher = more stable
# assay context: treatment: DMSO; c terminus: a fixed tail appended
Each item that follows carries a reported protein stability index.

sequence record	protein stability index
LTQLHRLSLESSPDAPDHTSETSH [PLEKHN1]	5.23
LLGATKRSMVFKDVLLLGNDYIVP [HNF4A]	2.28
SDAGSPSLHKHLTIRLNISDVNDN [PCDHGC5]	3.73
QMQEDNSSFSLLLDLLSELYQKQP [INTS3]	2.38
KNLYKLASQCCGVHVISLHIWELS [PTGFR]	2.97
DHVDLSLSCTLVPRSGEQAEGSPG [CDKN1A]	4.91
SLPKRLCLVCGDVASGYHYGVASC [ESRRA]	2.22
QRVEQLTRDLAGLRQFFKQLPSPP [CEBPD]	2.71
LQVIKALKSSGLCESLTYGLPFIL [M1AP]	3.04
QSETQGLEGAQAPLAVEEDASSST [MAGEA10]	5.64
NAREESLVEELSPASEKKPVPPSE [BCL2L13]	5.33
KGNLLRHIKLHSGEKPFKCHLCNY [IKZF1]	2.37
QPWHAVMDIESLSVFTEPNRHFYR [FBXO33]	2.26

* * *

# assay comment: protein stability index of a GFP-peptide fusion (GPS, HEK-293T) (PSI 1-6); higher = more stable
# assay context: treatment: MLN4924 1 uM, 8 h; c terminus: a fixed tail appended
Measured protein stability index values are reported for all entries that follow.
assay metric: protein stability index

sequence record	observed measurement
YQNELHKFLIWDTAGQERFRALAP [RAB22A]	2.46
GPPHARISQHGDPLLSNTFTETNN [EMID1]	4.75
AGRGGAAGTAGVGETGSGDQAGGE [MYOZ1]	5.43
SFTQEQVADIDGQYAMTRAQRVRA [CTNNB1]	4.62
PLCMLLLIDHLALRARNYEYLIRL [TCF25]	2.92
YSYVYQDGLRLLGARARGVAMLGV [SOAT2]	2.25
QFLDIGPDVTRVGLLQYGSTVKNE [MATN2]	3.65
TRPSGNNGNRRRRKLRKTVNGDGS [PHTF1]	5.03
SPSVMRLVHTQEPGEWLELLLEPG [ALKBH7]	3
ARARERERLAHSRAAAAAAVAAAT [KCNA4]	4.38
LGLSKLARIVEIYSRRLQVQERLT [GCH1]	2.2
LMFFIMAAMLSMVKYNSCADRPFS [POMT2]	3.06
ALSYAQHTRQLISCGGDGGIVVWN [WDFY2]	2.12
LANPVLESTPVGTVVGLFNVRDRD [PCDHGC5]	4.06

* * *

# assay comment: protein stability index of a GFP-peptide fusion (GPS, HEK-293T) (PSI 1-6); higher = more stable
# assay context: treatment: MLN4924 1 uM, 8 h; c terminus: a fixed tail appended
List of protein stability index values.

sequence record	protein stability index
SPEKEEQYIAQFTSQFLSLQCLQA [PRAME]	2.44
FIVDILQFLDIGPDVTRVGLLQYG [MATN2]	2.94
PGPDTGPDSELSPCIPPGFRNLVA [SPAG8]	3.94
RLVAPTEGSLEWDILEVKRLLDHQ [WDR41]	2.77
AEAEALYSAYIRRCACAASSDESP [TTC32]	3.42
VVFHCEFSSERGPRMCRYVRERDR [CDC25A]	2.4
ESTTVVTTQSAEVGAAETTLTELR [KRT18]	5.29
QGYTINVPWNQVGMRDADYIAAFL [HDAC6]	2.46
QAQPGEATSGPPGIQPGQEPPVTM [PALM]	5.33
KERAAGGGAGSSEDDAQSRRDEQD [GOLPH3]	5.67
GWPHEDAAQFTDFLIPMLEMVPEK [SRPK2]	4.01
YLSPRDFLSGLAFRVFHCTQYVRH [TPH1]	2.08
LHKIYLCQSGYFSSMFSGSWKESS [GMCL1]	2.18
EKSGSAEPFVLPASSVESTLPVLE [FBXO34]	5.01
YVRLVCKDVRAPSRPAVGPPQPGC [ZSWIM9]	2.4
PPAELKAEPGFEPADCKRKEEAGA [CEBPB]	5.68
VSASGKEMDWAQMACHRCLVYLGD [SMG5]	2.21
SPHRKRSDDSDEDEPCAISGKWTF [DLC1]	4.51

* * *

# assay comment: protein stability index of a GFP-peptide fusion (GPS, HEK-293T) (PSI 1-6); higher = more stable
# assay context: treatment: DMSO; c terminus: a fixed tail appended

sequence record	protein stability index
QDQGYKTLRLRENCVLSSSPNPFP [ZNF8]	3.25
GNEKSIIDCKFNAESQGCNHEEDA [LOXL2]	5.65
VQLHNGTKYKKFPHWLDKWMLTRK [STEAP1]	2.36
WRMLTYKALNTFIDDLFAFVIKMP [CLPTM1]	2.95

* * *

# assay comment: protein stability index of a GFP-peptide fusion (GPS, HEK-293T) (PSI 1-6); higher = more stable
# assay context: treatment: MLN4924 1 uM, 8 h; c terminus: a fixed tail appended
Listed next: entries and their corresponding protein stability index.

sequence record	protein stability index
ETLKHIKATEPTETVQTWIELLTG [GOLPH3L]	2.86
EKMMQEAEKLKAQGEYSRKLEERF [CCDC89]	3.56
IFSGAASLGYGTNVAATGISQYED [APBB1IP]	3.67
TPRGPDPALLEATGGAAGAGGAGR [KCTD13]	5.18
VPTPLTNVQILLPVGEPVTNVRLQ [FCHO1]	3.36
GSAYLFVESSLDKVVLSDAYAHPQ [TRADD]	2.37
SCSSDGGIAVWNMDVSREEAPQWL [WDFY1]	3.08
KDLFTQRQNSAPARMLSSNERDSS [CDC25A]	4.84

* * *

# assay comment: protein stability index of a GFP-peptide fusion (GPS, HEK-293T) (PSI 1-6); higher = more stable
# assay context: treatment: DMSO; c terminus: a fixed tail appended
Response key: YES means protein stability index >= 4; NO means protein stability index < 4.

sequence record	label class
MQKEDNQVDVRFFGHHHQRAWIPS [ZMYND11]	NO
CYKGHLEMVRFLLEAGADQEHKTD [ANKRD17]	NO
TNALIGGPMPMSMPNVMTGTMGMA [CLINT1]	NO
DGHIDINEFLEAFRLVEKSCPEGD [PPEF2]	YES
SNSADDETDDPRRYQKYGYIGTHE [OAS1]	YES
GASDNSIIMWDIGGRKGRTLLLQG [WDFY1]	NO
LRARNYEYLIRLFQEWEAHRNLSQ [TCF25]	NO
LNKLYPTHACREYLKNLPLLSKYC [TPH1]	NO
WVDITDVPPGDYLFQVVINPNFEV [LOXL2]	NO
RPCVPPSCHGYTLPGACNIPANVS [KRT33B]	NO
CSQYDRVYCGAGVQKEHEEYMKNL [PCMTD2]	NO
DSYTATGYGRAPGGLSLHDYKLLK [JUNB]	NO
HTETGEEVLRMCVAVKKKLQLYFW [VPS39]	NO
LPEKACQLDSRYWRITNAKGDVEE [FBXO3]	YES
NCSGPAPAAKPDPDGGRADEWACE [P3H4]	YES
YYYTKVMSELFLHTPSDTGVSFQA [PKD2L1]	NO
NKPREHIIDCGDIVWSLAFGSSVP [WSB1]	NO
EKNQVQLGKLEATIKSLSAELLKA [SASS6]	NO
TRWLNSGRGDEASEEGQNGSSPKS [ADD1]	YES
ETEKEEEEEDREEEDENGLPRRRG [NEUROD6]	YES
NARLQAMWGQSLLPPVSTSFTTGG [TNXB]	NO
AEESNPPLQDFPNSISSDKEATVP [MIA2]	YES
MDEEKLKQLNCVEISALNGNRINV [DLC1]	NO
